molecular target: Gonadotropin-releasing hormone receptor (Rattus norvegicus); assay: Concentration of the peptide which displaces 50% of 125 I-[D-Lys6] gonadotropin-releasing hormone bound to rat pituitary membranes
Sequence (P30969 whole entry): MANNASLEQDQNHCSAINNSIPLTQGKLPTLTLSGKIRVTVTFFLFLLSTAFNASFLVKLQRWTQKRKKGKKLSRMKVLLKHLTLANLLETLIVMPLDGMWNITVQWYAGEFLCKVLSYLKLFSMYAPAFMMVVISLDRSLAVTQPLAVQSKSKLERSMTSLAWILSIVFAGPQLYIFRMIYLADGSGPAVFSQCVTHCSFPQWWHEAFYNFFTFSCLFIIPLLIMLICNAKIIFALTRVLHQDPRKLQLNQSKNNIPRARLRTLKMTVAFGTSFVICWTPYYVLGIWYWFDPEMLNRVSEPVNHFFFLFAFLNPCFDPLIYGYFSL
Measurement Kind: IC50
Your reply should be a number followed by the unit it is expressed in.

Any idea what its IC50 is? The compound is C[C@@H](NC(=O)[C@@H]1CCCN1C(=O)[C@H](CCCN=C(N)N)NC(=O)CNC(=O)[C@@H](Cc1ccccc1)NC(=O)[C@@H](Cc1ccccc1)NC(=O)[C@H](N)Cc1ccc2ccccc2c1)C(N)=O 280 nM

Any idea what its IC50 is? The compound is CC(=O)N[C@H](Cc1ccc2ccccc2c1)C(=O)N[C@H](Cc1ccc(Cl)cc1)C(=O)N[C@H](Cc1ccccn1)C(=O)Nc1ccccc1C(=O)N[C@@H](CCCNC(=N)N)C(=O)N1CCC[C@H]1C(=O)N[C@H](C)C(N)=O 140 nM

Any idea what its IC50 is? The compound is CCCC[C@H](NC(=O)[C@@H](C)NC(=O)[C@@H](Cc1ccccn1)NC(=O)[C@@H](Cc1ccc(Cl)cc1)NC(=O)[C@@H](Cc1ccc2ccccc2c1)NC(C)=O)C(=O)N1CCC[C@H]1C(=O)N[C@H](C)C(N)=O 88 nM

Data origin: ChEMBL document CHEMBL1133081
